Data origin, for the record: ChEMBL document CHEMBL3232855

SYSTEM_TESTED: UniProtKB P47871
Sequence (P47871 whole entry): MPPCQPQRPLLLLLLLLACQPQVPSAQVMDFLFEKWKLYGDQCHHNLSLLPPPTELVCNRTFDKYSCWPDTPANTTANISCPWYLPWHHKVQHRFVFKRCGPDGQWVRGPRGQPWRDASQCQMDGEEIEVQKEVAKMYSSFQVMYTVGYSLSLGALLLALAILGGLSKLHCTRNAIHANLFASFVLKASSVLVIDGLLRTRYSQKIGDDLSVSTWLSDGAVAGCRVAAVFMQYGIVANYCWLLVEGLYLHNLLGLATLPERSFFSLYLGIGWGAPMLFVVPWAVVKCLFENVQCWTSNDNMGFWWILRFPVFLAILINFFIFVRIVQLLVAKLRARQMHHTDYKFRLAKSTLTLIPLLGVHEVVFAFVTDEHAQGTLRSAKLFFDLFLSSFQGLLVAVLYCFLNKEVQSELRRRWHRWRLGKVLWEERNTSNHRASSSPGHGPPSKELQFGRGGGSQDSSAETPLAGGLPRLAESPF
METHOD: Antagonist activity at human GCGR expressed in CHO cells assessed as inhibition of glucagon-stimulated cAMP production preincubated for 30 mins followed by glucagon induction measured after 45 mins by LANCE assay
Format: functional, cell-based
Would you kindly list IC50 for each of these compounds?
Could you kindly put the unit after your number?

1) CCCC[C@H](c1ccc(C(=O)NCc2nn[nH]n2)cc1)N1C(=O)C(c2cc(Cl)cc(Cl)c2)=N[C@]12CC[C@@H](C(C)(C)C)CC2 | 380 nM
2) CC(C)(C)CC[C@H](c1ccc(C(=O)NCCC(=O)O)cc1)N1C(=O)C(c2cc(Cl)cc(Cl)c2)=N[C@]12CC[C@@H](C(C)(C)C)CC2 | 48 nM
3) CC(C)(C)CC[C@H](c1ccc(C(=O)NCc2nn[nH]n2)cc1)N1C(=O)C(c2cncc(Cl)c2)=N[C@]12CC[C@@H](C(C)(C)C)CC2 | 480 nM
4) C[C@H](c1ccc(C(=O)NCCC(=O)O)cc1)N1C(=O)C(c2cccc(OC(F)(F)F)c2)=N[C@]12CC[C@@H](C(C)(C)C)CC2 | 840 nM

For each of the compounds below, note its IC50.
1. CCCCC[C@H](c1ccc(C(=O)NCc2nn[nH]n2)cc1)N1C(=O)C(c2cc(Cl)cc(Cl)c2)=N[C@]12CC[C@@H](C(C)(C)C)CC2
2. C[C@H](c1ccc(C(=O)NCCC(=O)O)cc1)N1C(=O)C(c2ccc(C(F)(F)F)cc2)=N[C@]12CC[C@@H](C(C)(C)C)CC2
3. C[C@H](c1ccc(C(=O)NCCC(=O)O)cc1)N1C(=O)C(c2cccc(Cl)c2)=N[C@]12CC[C@@H](C(C)(C)C)CC2
4. CC(C)(C)[C@H]1CC[C@]2(CC1)N=C(c1cc(Cl)cc(Cl)c1)C(=O)N2[C@H](CCC(F)(F)F)c1ccc(C(=O)NCc2nn[nH]n2)cc1
5. C[C@H](c1ccc(C(=O)NCCC(=O)O)cc1)N1C(=O)C(c2cccc(C3CC3)c2)=N[C@]12CC[C@@H](C(C)(C)C)CC2
6. CC(C)(C)[C@H]1CC[C@]2(CC1)N=C(c1ccc(Cl)c(Cl)c1)C(=O)N2Cc1ccc(C(=O)NCCC(=O)O)cc1
7. CC(C)(C)CC[C@H](c1ccc(C(=O)NC[C@@H](O)C(=O)O)cc1)N1C(=O)C(c2cc(Cl)cc(Cl)c2)=N[C@]12CC[C@@H](C(C)(C)C)CC2 (mixture of isomers)

130 nM
910 nM
480 nM
370 nM
340 nM
1600 nM
400 nM

For each of the compounds below, note its IC50.
1. C[C@H](c1ccc(C(=O)NCCC(=O)O)cc1)N1C(=O)C(c2cccc(Cl)c2F)=N[C@]12CC[C@@H](C(C)(C)C)CC2
2. C[C@H](c1ccc(C(=O)NCCC(=O)O)cc1)N1C(=O)C(c2ccc(F)cc2)=N[C@]12CC[C@@H](C(C)(C)C)CC2

1. 630 nM
2. 430 nM
